molecular target: hD3 receptor (Homo sapiens, UniProt P35462); construct: purchased BioSignal Packard Inc., Montreal, Canada; test: Radioligand binding, dopamine D3 ([3H]spiperone); settings: read-out: Binding affinity (Inhibition rate % at 10 μM) D3
Sequence (P35462 whole entry): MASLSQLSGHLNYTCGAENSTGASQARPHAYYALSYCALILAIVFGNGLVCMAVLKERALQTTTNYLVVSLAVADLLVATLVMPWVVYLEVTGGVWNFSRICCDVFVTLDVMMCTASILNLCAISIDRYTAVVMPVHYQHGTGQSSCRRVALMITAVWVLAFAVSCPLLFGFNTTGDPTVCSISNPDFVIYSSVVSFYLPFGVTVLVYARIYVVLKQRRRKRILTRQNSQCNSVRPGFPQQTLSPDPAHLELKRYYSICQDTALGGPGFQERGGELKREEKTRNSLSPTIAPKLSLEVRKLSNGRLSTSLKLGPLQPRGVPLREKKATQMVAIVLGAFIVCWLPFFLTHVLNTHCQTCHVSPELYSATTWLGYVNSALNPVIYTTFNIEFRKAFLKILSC
Readout kind: inhibition at 10 µM (%)
Provide only the numeric value, understood in %.

{"Compound": "CCN(CC)c1ccc(C2(C)C(=O)Nc3cc(Cl)cc(Cl)c3C2=O)cc1 (stereo not drawn)", "inhibition at 10 µM, %": 25.3}
{"Compound": "CC1(c2ccc(Br)cc2)C(=O)Nc2cc(Cl)cc(Cl)c2C1=O (stereo not drawn)", "inhibition at 10 µM, %": 12.5}
{"Compound": "CC1(c2ccccc2)C(=O)Nc2cc(Cl)c(Cl)cc2C1=O (stereo not drawn)", "inhibition at 10 µM, %": 10.8}
{"Compound": "CN1CCN(c2cc(Cl)c3c(c2)NC(=O)C(C)(c2ccc(O)cc2)C3=O)CC1 (stereo not drawn)", "inhibition at 10 µM, %": 14.2}
{"Compound": "CC1(c2ccc([N+](=O)[O-])cc2)C(=O)Nc2cc(Cl)cc(Cl)c2C1=O (stereo not drawn)", "inhibition at 10 µM, %": 30.7}

Tell me the measured inhibition at 10 µM of COc1cc(Cl)cc2c1C(=O)C(C)(c1ccccc1)C(=O)N2 (stereo not drawn) , please. 23

inhibition at 10 µM for C[C@H](NC(=O)Nc1cccc([C@@]2(C)C(=O)Nc3cc(Cl)cc(Cl)c3C2=O)c1)c1ccccc1 ? 24

Item under review: CC1(c2ccc([N+](=O)[O-])cc2)C(=O)Nc2cc(Cl)c(Cl)cc2C1=O (stereo not drawn) . Reported inhibition at 10 µM? 11.9

What value of measured inhibition at 10 µM is listed for COc1cc(Cl)c2c(c1)NC(=O)C(C)(c1ccccc1)C2=O (stereo not drawn) ? 10.1
